meta.source: ChEMBL document CHEMBL1137718

Hi there, I'd appreciate the recorded pKi for every entry that follows.
# MEASURED_ON: Adenosine receptor A3 (Homo sapiens)
# Sequence (P0DMS8 whole entry): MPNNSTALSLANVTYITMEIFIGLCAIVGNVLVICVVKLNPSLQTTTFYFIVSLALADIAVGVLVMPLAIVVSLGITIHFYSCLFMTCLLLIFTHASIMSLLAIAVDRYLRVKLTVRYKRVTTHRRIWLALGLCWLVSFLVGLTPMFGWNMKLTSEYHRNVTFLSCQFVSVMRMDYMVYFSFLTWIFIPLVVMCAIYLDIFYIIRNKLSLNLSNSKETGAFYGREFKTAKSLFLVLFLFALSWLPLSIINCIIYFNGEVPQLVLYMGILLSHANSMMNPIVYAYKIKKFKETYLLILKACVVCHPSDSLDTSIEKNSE
# EXPERIMENT_DESCRIPTION: Displacement of [125I][…] from human adenosine A3 receptor expressed in CHO cells
# Format: cell-based
# reply with the number alone; pKi is -log10 of concentration in mol/L

Prompt: Read off the recorded pKi for `Cc1ccccc1CNc1nc(Cl)nc2c1ncn2[C@@H]1O[C@H](C(=O)NC2CC2)[C@@H](O)[C@H]1O`
Response: 7.56

Prompt: Tell me measured pKi for `O=C(NCc1cccc(Cl)c1)[C@H]1O[C@@H](n2cnc3c(NCc4cccc(I)c4)nc(Cl)nc32)[C@H](O)[C@@H]1O` please.
Response: 6.51

Prompt: Answer with the recorded pKi for the compound listed here: `Cc1ccccc1CNc1nc(Cl)nc2c1ncn2[C@@H]1O[C@H](C(=O)N(C)C)[C@@H](O)[C@H]1O`
Response: 6.20

Prompt: Kindly indicate its recorded pKi. Item: `CNc1nc(Cl)nc2c1ncn2[C@@H]1O[C@H](C(=O)NCC2CC2)[C@@H](O)[C@H]1O`
Response: 8.96

Prompt: Provide one value: measured pKi of `Cc1ccccc1CNc1nc(Cl)nc2c1ncn2[C@@H]1O[C@H](C(=O)N2CCOCC2)[C@@H](O)[C@H]1O`
Response: 5.12

Prompt: Check the records and state pKi for `CNc1nc(Cl)nc2c1ncn2[C@@H]1O[C@H](C(=O)N2CCN(c3ccc(F)cc3)CC2)[C@@H](O)[C@H]1O`
Response: 5.57

Prompt: Give pKi for the following compound: `CNc1nc(Cl)nc2c1ncn2[C@@H]1O[C@H](C(=O)NC2CC2)[C@@H](O)[C@H]1O`
Response: 8.55

Prompt: For the compound `CNc1nc(Cl)nc2c1ncn2[C@@H]1O[C@H](C(=O)NCCc2cccc(F)c2)[C@@H](O)[C@H]1O` , give its measured pKi value.
Response: 7.07

* * *

Protein target, amino acids: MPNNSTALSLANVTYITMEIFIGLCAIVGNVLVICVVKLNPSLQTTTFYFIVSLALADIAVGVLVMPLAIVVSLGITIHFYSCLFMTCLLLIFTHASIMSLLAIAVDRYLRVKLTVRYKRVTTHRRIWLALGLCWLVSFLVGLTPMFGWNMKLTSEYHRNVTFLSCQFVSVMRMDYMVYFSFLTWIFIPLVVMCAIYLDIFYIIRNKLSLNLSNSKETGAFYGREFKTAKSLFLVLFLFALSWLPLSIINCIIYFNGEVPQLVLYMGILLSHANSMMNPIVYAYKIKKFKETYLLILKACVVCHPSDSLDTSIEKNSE
VALUE_TYPE: pKi
API: returns pKi as number; meaning -log10 of concentration in mol/L.

Prompt: State its pKi: `CCNC(=O)[C@H]1O[C@@H](n2cnc3c(NC4CC4)nc(Cl)nc32)[C@H](O)[C@@H]1O`
Response: 9.17

Prompt: Dear colleague, please send me the reported pKi for `O=C(NCCc1ccccc1)[C@H]1O[C@@H](n2cnc3c(NCc4cccc(I)c4)nc(Cl)nc32)[C@H](O)[C@@H]1O` when you can.
Response: 6.36

Prompt: Provide measured pKi value, entry: `CC(C)CCNC(=O)[C@H]1O[C@@H](n2cnc3c(NCc4cccc(I)c4)nc(Cl)nc32)[C@H](O)[C@@H]1O`
Response: 7.38

Prompt: Return pKi for the following compound: `CNc1nc(Cl)nc2c1ncn2[C@@H]1O[C@H](C(=O)NCCC(c2ccccc2)c2ccccc2)[C@@H](O)[C@H]1O`
Response: 6.38

Prompt: Provide one value: measured pKi of `O=C(NC1CC1)[C@H]1S[C@@H](n2cnc3c(NCc4cccc(I)c4)nc(Cl)nc32)[C@H](O)[C@@H]1O`
Response: 8.53

Prompt: # return recorded pKi for input `CCNC(=O)[C@H]1S[C@@H](n2cnc3c(NCc4cccc(I)c4)nc(Cl)nc32)[C@H](O)[C@@H]1O`
Response: 9.05

Prompt: Assign pKi to the following record: `CNc1nc(Cl)nc2c1ncn2[C@@H]1O[C@H](C(=O)NCc2cccc(F)c2)[C@@H](O)[C@H]1O`
Response: 7.76

Prompt: Fill in pKi for record `O=C(NCc1cccc(C(F)(F)F)c1)[C@H]1O[C@@H](n2cnc3c(NCc4cccc(I)c4)nc(Cl)nc32)[C@H](O)[C@@H]1O`
Response: 6.45

Prompt: State its pKi: `CNC(=O)[C@H]1O[C@@H](n2cnc3c(NC4CC4)nc(Cl)nc32)[C@H](O)[C@@H]1O`
Response: 8.65

Prompt: Give pKi for the following compound: `CNC(=O)[C@H]1O[C@@H](n2cnc3c(N)nc(Cl)nc32)[C@H](O)[C@@H]1O`
Response: 9.40

Prompt: Identify measured pKi corresponding to `CNc1nc(Cl)nc2c1ncn2[C@@H]1O[C@H](C(=O)NCCC(C)C)[C@@H](O)[C@H]1O`
Response: 8.79

Prompt: Give pKi for the following compound: `CNC(=O)[C@H]1S[C@@H](n2cnc3c(NC4CCCC4)nc(Cl)nc32)[C@H](O)[C@@H]1O`
Response: 8.37

Prompt: For the compound `O=C([C@H]1O[C@@H](n2cnc3c(NC4CC4)nc(Cl)nc32)[C@H](O)[C@@H]1O)N1CCC(Cc2ccccc2)CC1` , give its reported pKi.
Response: 5.40
